Molecular target: Macrophage colony-stimulating factor 1 receptor (Homo sapiens) (UniProt P07333);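 note: value reported is the mean inhibition of FMS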
Sequence (P07333 whole entry): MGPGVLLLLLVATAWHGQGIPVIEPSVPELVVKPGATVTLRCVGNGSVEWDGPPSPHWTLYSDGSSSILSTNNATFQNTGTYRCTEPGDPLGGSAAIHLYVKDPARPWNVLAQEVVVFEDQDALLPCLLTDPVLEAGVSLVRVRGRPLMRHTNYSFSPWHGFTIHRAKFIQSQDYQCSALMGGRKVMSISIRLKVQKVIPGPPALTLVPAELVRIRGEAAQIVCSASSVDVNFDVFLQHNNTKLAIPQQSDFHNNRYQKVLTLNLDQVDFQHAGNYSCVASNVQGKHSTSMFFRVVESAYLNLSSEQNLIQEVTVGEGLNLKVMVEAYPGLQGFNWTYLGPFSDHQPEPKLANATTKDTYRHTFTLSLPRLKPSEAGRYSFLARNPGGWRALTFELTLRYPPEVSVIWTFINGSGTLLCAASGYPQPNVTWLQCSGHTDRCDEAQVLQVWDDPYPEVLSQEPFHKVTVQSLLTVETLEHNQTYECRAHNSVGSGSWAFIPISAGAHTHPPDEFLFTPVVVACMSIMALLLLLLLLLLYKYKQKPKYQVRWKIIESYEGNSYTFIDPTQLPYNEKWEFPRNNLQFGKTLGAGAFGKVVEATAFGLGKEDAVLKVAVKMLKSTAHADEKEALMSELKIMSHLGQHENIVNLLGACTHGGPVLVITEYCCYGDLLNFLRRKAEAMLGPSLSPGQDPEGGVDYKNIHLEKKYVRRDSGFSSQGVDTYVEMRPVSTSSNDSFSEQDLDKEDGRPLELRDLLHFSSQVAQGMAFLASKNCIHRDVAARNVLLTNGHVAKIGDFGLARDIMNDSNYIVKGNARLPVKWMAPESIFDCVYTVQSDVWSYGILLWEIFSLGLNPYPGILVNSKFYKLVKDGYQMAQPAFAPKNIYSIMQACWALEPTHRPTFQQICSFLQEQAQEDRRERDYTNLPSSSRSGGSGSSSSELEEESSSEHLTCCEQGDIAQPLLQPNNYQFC
Details: at 0.1 µM
Can you tell me inhibition for the items I'm about to list?
Give the number; % is assumed, so skip it.

Value of measured inhibition for the entry CCn1c(-c2nonc2N)nc2c(C#CC(C)(C)O)nc(OC[C@@H](N)c3ccccc3)cc21 : -0.21

Value of measured inhibition for the entry COc1ccc(-c2ccncc2)cc1C(N)=O : 2.6

Value of measured inhibition for the entry COc1cc2ncn(-c3cc(O[C@@H](C)c4ccccc4Cl)c(C(N)=O)s3)c2cc1OC : 1.84

Value of measured inhibition for the entry COc1cc2ncn(-c3cc(OCc4ccccc4Cl)c(C(N)=O)s3)c2cc1OC : 1.91

Value of measured inhibition for the entry CCn1c(-c2nonc2N)nc2c(N3CCCC3)nccc21 : -0.51

Value of measured inhibition for the entry COC(=O)Nc1nc2cc(Oc3ccc(NC(=O)Nc4cccc(C(=O)O)c4)cc3)ccc2[nH]1 : 3.75

Value of measured inhibition for the entry COc1cc(C=NNc2ncnc3c2cnn3-c2ccccc2)ccc1O : 7.04

Value of measured inhibition for the entry CS(=O)(=O)Nc1ccc(N/C=C2\C(=O)Nc3ccccc32)cc1 : 7.03

Value of measured inhibition for the entry COc1cc(C)c(NC(=O)CN(C)C)cc1Nc1nc(Nc2cccc(F)c2C(N)=O)c2cc[nH]c2n1 : 3.71

Value of measured inhibition for the entry CC1=C(C(=O)Nc2ccc3[nH]ncc3c2)C(c2ccc3ccccc3c2)CC(=O)N1 (stereo not given) : 7.17

Value of measured inhibition for the entry O=C1NC(=O)C(N2CCc3ccccc32)=C1c1ccc(Cl)cc1 : 4.95

Value of measured inhibition for the entry COc1ccc(-c2coc3ncnc(N)c23)cc1 : 4.17

Value of measured inhibition for the entry COC(=O)Nc1nc2cc(Oc3cccc(NC(=O)Nc4cc(C(F)(F)F)ccc4F)c3)ccc2[nH]1 : 4.37

Value of measured inhibition for the entry CCn1c(-c2nonc2N)nc2cnc(Oc3cccc(NC(=O)c4ccc(OCCN5CCOCC5)cc4)c3)cc21 : 1.4

Value of measured inhibition for the entry Cc1ccc(C(=O)NC2CCCCC2)cc1-c1ccc(C(=O)NCC2CC2)cc1 : -0.58

Value of measured inhibition for the entry COc1cc2c(cc1Nc1nc(N3CCc4ccccc43)c3cc[nH]c3n1)N(C(=O)CN(C)C)CC2 : 1.41

Value of measured inhibition for the entry NC(=O)c1cccc(Nc2nccc(Nc3cccc4[nH]ncc34)n2)c1 : 3.46

Value of measured inhibition for the entry O=C1NC(=O)C(c2ccccc2Cl)=C1Nc1cccc(O)c1 : -1.08

Value of measured inhibition for the entry Nc1nc(-c2ccccn2)c(-c2ccc3ncccc3n2)s1 : 2.04

Value of measured inhibition for the entry CC(C)=Cc1cccc2c1/C(=N/Nc1ccc(S(N)(=O)=O)cc1)C(=O)N2 : 41.8

Value of measured inhibition for the entry CNC(=O)c1cncc(/C=C/c2c(Cl)cccc2Cl)c1 : 7.17

Value of measured inhibition for the entry COc1cccc(-n2ncc3c(N/N=C/c4cccc(F)c4)ncnc32)c1 : -0.57

Value of measured inhibition for the entry CCCN1CCC=C(c2ccc(Nc3nc(Nc4ccccc4C(N)=O)c4cc[nH]c4n3)c(C)c2)C1 : 27.4

Value of measured inhibition for the entry Cc1ccc(NC(=O)c2ccnc(N3CCCC3)c2)cc1-c1ccc(C(=O)NCC2CC2)cc1 : 1.57

Value of measured inhibition for the entry CC(=O)Nc1cccc(C#Cc2cncnc2Nc2ccc(OCc3cccc(F)c3)c(Cl)c2)n1 : 0.5

The measured values listed here are drawn from ChEMBL document CHEMBL1961873.
